# Test system: Caco-2
# TEST_SUMMARY: In vitro cytotoxicity, CCK-8 assay, Caco-2
# Type: cell-based
# STATED_CONDITIONS: Homo sapiens, Caco-2, 48 h, read-out: IC50 Caco-2, normoxia, 48 h drug exposure, CCK-8
QUANTITY_MEASURED: pIC50
FYI, pIC50 means -log10 of a concentration in mol per litre.

Input line: Look up pIC50: C=C1/C=C/C(=O)N(C)CC(=O)N[C@@H]([C@H](O)C(N)=O)C(=O)O[C@@H]([C@H](C)CCCCCCCCCCCC(C)CC)[C@H](C)C(=O)N1 (stereo partly shown)
Output line: 6.23
